Measured values drawn from PubChem BioAssay for this set.

- Tested on: Aerobactin synthetase IucA (Klebsiella pneumoniae)
- measurement.protocol: inhibition of K. pneumoniae IucA enzyme – biochemical, Tocris library, absorbance (AID 1345561);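 also: 100% = enzyme without compound and 0% = no enzyme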
- run.parameters: purified IucA enzyme assay, absorbance (OD) read-out; stronger effect = lower value; concentration not given here
reported.metric: remaining activity (%)

smiles_string=CCS(=O)(=O)N(C)[C@H]1c2cc(C#N)ccc2OC(C)(C)[C@@H]1O system="Aerobactin synthetase IucA (Klebsiella pneumoniae)" reported_metric="remaining activity" endpoint_value=111
smiles_string=CC[C@H](CO)Nc1nc(NCc2ccc(-c3ccccn3)cc2)c2ncn(C(C)C)c2n1 system="Aerobactin synthetase IucA (Klebsiella pneumoniae)" reported_metric="remaining activity" endpoint_value=108
smiles_string=c1ccc(N2CCN(CCCOc3ccc4c(c3)OCO4)CC2)cc1 system="Aerobactin synthetase IucA (Klebsiella pneumoniae)" reported_metric="remaining activity" endpoint_value=103
smiles_string=COc1cc(OC)c(C(=O)CCCCN2CCC3(CC2)NC(=O)NC3=O)cc1NS(=O)(=O)c1ccc(C(F)(F)F)cc1 system="Aerobactin synthetase IucA (Klebsiella pneumoniae)" reported_metric="remaining activity" endpoint_value=118
smiles_string=Clc1ccc(CCCOCCCN2CCCCC2)cc1 system="Aerobactin synthetase IucA (Klebsiella pneumoniae)" reported_metric="remaining activity" endpoint_value=105

###

- measurement.protocol: viability loss with induced miR-34 in A549 – imaging, A549 dox-inducible miR-34, nuclei and caspase counts, primary screen (AID 1347080)
- run.parameters: A549 miR-34 inducible, Hoechst nuclei count, 48 h; measured here: total cells with miR-34 induction; stronger effect = lower value
# reported cell count; entries follow
reported.metric: cell count

compound=CC(=O)O[C@@]12C[C@@H](C)[C@@]3(O)[C@@H](C=C(CO)C[C@]4(O)C(=O)C(C)=C[C@@H]34)[C@@H]1C2(C)C endpoint_value=5200
compound=Cc1nc(N)sc1-c1ccnc(Nc2ccc(N3CCOCC3)cc2)n1 endpoint_value=1260
compound="Nc1cccc2c1C(=O)N(C1CCC(=O)NC1=O)C2=O (stereo unspecified)" endpoint_value=8200
compound=CC(C)N1CCN(c2ccc(C(=O)c3c(-c4ccc(O)cc4)sc4cc(O)ccc34)cc2)CC1 endpoint_value=6900
compound=O=C(O)/C=C/CCCCCCCCC(=O)O endpoint_value=5830
compound=CN1CCN(CCc2ccc(Cl)c(Cl)c2)CC1 endpoint_value=7800

###

- measurement.protocol: viability loss in pontine glioma line – cell-based, JHH-DIPG-1, MIPE4.0, CellTiter-Glo, qHTS, dose response (AID 1347062);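 as to AC50: cells exposed to compound for two days before readout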
- run.parameters: JHH-DIPG-1 viability, CellTiter-Glo ATP luminescence
Records with an inconclusive call do not appear. The source made the active and inactive calls. Cut-off not given; nearly all actives show AC50 up to about 27 µM.
Outcome codes: active, inactive

compound=CCn1c(C(=O)N(C2CC2)C2CC2)cc2c3c(ncn3C)c(Nc3cc(C)n(C)n3)nc21 assigned_class=inactive
compound="C=CC(=O)Nc1cccc(Nc2nc(NC3CCC(N(C)C)CC3)nc3c2ncn3C(C)C)c1 (centres undefined)" assigned_class=active
compound=C=C(C)[C@@H]1CC[C@]2(C)CC[C@]3(C)[C@H](CC[C@@H]4[C@@]5(C)CC[C@H](O)C(C)(C)[C@@H]5CC[C@]43C)[C@@H]12 assigned_class=inactive
compound=Cn1c2ccccc2c2c3c(c4c5ccccc5n(CCC#N)c4c21)CNC3=O assigned_class=inactive
compound=COc1ccc(-c2nc(N3CCOCC3)c3sc(CN(C)c4ncc(C(=O)NO)cn4)cc3n2)cn1 assigned_class=active
compound=Cn1cc(-c2ccc3ncc(Cc4ccc5ncccc5c4)n3n2)cn1 assigned_class=inactive
compound=COc1cc(OC)c(/C=C/S(=O)(=O)Cc2ccc(OC)c(NCC(=O)O)c2)c(OC)c1 assigned_class=active
compound=COCCOc1ccc2c(c1)ncn2-c1ccc2cccc(N3CCC(N)CC3)c2n1 assigned_class=active
compound=CNC(=O)c1nn(C)c2c1C(C)(C)Cc1cnc(Nc3ccc(N4CCN(C)CC4)cc3)nc1-2 assigned_class=active
